System: SF-539 CNS
Experiment: NCI tumour cell line growth inhibition, 48 h
compounds and their reported TGI
experimental.endpoint: TGI (µM)

[[record]]
compound = "CS(=O)(=O)Nc1ccc(Nc2c3ccccc3nc3ccccc23)cc1"
limit_sign = "="
endpoint_result = 20.2

[[record]]
compound = "O=C(O)CC/C(=N\\Nc1nsc2ccccc12)c1ccc(Cl)cc1"
limit_sign = ">"
endpoint_result = 89.8

[[record]]
compound = "CCn1cnc2c(Nc3cccc(Cl)c3)nc(N[C@@H]3CCCC[C@@H]3N)nc21"
limit_sign = "="
endpoint_result = 2.8

[[record]]
compound = "O=C(Nc1nc2ncn(CC(COc3ccccc3)OC(=O)c3ccccc3)c2c(=O)[nH]1)c1ccccc1 (stereo not given)"
limit_sign = ">"
endpoint_result = 100

[[record]]
compound = "COc1ccc2c(c1)CCC1C2CC[C@]2(C)/C(=N/OC(=O)Cc3ccccc3)CCC12 (stereo not given in full)"
limit_sign = "="
endpoint_result = 42.8

[[record]]
compound = "COc1ccc(-c2nc(-c3nc4ccc(OC)cc4[nH]3)cc3c2[nH]c2ccccc23)cc1"
limit_sign = ">"
endpoint_result = 100

[[record]]
compound = "OCC12C3C4C1C1C2C3C41CO (stereo not given)"
limit_sign = ">"
endpoint_result = 100

[[record]]
compound = "COC1=CC(c2ccc[nH]2)=N/C1=C\\c1ccc[nH]1"
limit_sign = "="
endpoint_result = 1.87

[[record]]
compound = "COc1ccc2oc(C(=O)N3CC(CCl)c4ccc([N+](=O)[O-])cc43)cc2c1 (stereo not given)"
limit_sign = ">"
endpoint_result = 100

[[record]]
compound = "CC(NC(=O)OC(C)(C)C)C(=O)C(N)=O (stereo not given)"
limit_sign = ">"
endpoint_result = 100

